System: HOP-92 NSCLC
experiment.notes: NCI tumour cell line growth inhibition, 48 h
Listed below: TGI values for each entry.

Item under review: CC1(C)C(C#N)C1C1=C(N2CCOCC2)[C@]2(C)C(OC(=O)c3ccccc3)CC[C@@H]2C1 (stereo partly specified) . Reported TGI? > 100 µM

Item under review: COc1cc(C(=O)N2CCN(C=O)C2=S)cc(OC)c1OC . Reported TGI? 26.2 µM

Item under review: O=C1CCC2(c3ccc(Cl)cc3)Nc3ncccc3N12 (stereo unspecified) . Reported TGI? > 100 µM

Item under review: CC(=O)CCn1c(=S)sc2ccccc21 . Reported TGI? > 100 µM

Item under review: CC(C)NC(=O)OCc1c(COC(=O)NC(C)C)c(-c2cc[n+](COC(=O)C3CC3)cc2)n2c1CCC2 . Reported TGI? > 100 µM

Item under review: O=C(Nc1ccn(CCO)c(=O)n1)c1ccccc1 . Reported TGI? > 100 µM
